Recorded measurements of cytotoxicity at 70.5 h, one per entry
Experiment: Human HepG2 cell viability assay in 384 well format
Assay type: toxicity, cell-based
Design: dose 125 nL, time 70.5 hour; concentration not given beside the values
Conditions: HepG2 cells, read-out: Inhibition
Answer in %, number only, no unit symbol.

Consider the worked cases shown below.
CC(C)(C)CCCC(=O)Nc1ccnn1C1CCS(=O)(=O)C1 (centres undefined)    -6.88
Cc1ccc(N2CCC(N3C[C@@H](CN(C)C)[C@@H](CO)C3)CC2)cc1    -6.07

Qu. Report cytotoxicity at 70.5 h for O=C1[C@H]2CN(S(=O)(=O)c3ccccc3)C[C@H]2CN1Cc1cccnc1
Ans. -15.6

Qu. Report cytotoxicity at 70.5 h for Cc1cnc(C)c(N2CCC(C(=O)O)(n3ccc(C(C)(C)C)n3)CC2)n1
Ans. 30.8

Qu. Report cytotoxicity at 70.5 h for c1cncc(CNC2CCc3ncnn3C2)c1 (centres undefined)
Ans. 34.5

Qu. Report cytotoxicity at 70.5 h for CS(=O)(=O)N1CCCC(Cc2cncc(-c3ccccc3C(=O)O)n2)C1 (centres undefined)
Ans. -12.4

Qu. Report cytotoxicity at 70.5 h for COc1ccc(OCc2cc(C(=O)N3CCN[C@H](C)C3)n[nH]2)c(Cl)c1
Ans. -9.79

Qu. Report cytotoxicity at 70.5 h for CC(NCc1cnc(C2CCC2)s1)c1ccccc1-n1cccn1 (centres undefined)
Ans. -3.26

Qu. Report cytotoxicity at 70.5 h for COCC(=O)N1CCC2(CCc3ccc(F)cc32)CC1
Ans. -2.02

Qu. Report cytotoxicity at 70.5 h for CN1CCN(C[C@H]2CC[C@@H](Cc3ccc4c(c3)OCO4)O2)CC1
Ans. -6.19

Qu. Report cytotoxicity at 70.5 h for Cc1ccc(F)cc1NC(=O)CCn1cncn1
Ans. -8.38

---

Experiment: Human HepG2 cell viability assay in 384 well format
Format: toxicity, cell-based
Parameters: dose 125 nL, time 70.5 hour; concentration not given beside the values
Details: HepG2 cells, read-out: Inhibition
readout: cytotoxicity at 70.5 h (%)
Answer in %, number only, no unit symbol.

Qu. Report cytotoxicity at 70.5 h for O=C(Nc1nc2c(s1)CN(S(=O)(=O)C1CC1)CC2)c1c(F)cccc1F
Ans. 3.16

Qu. Report cytotoxicity at 70.5 h for COc1ccc(Cc2ncc3c(n2)CN(C(=O)C2COCCO2)C3)cc1 (stereo not drawn)
Ans. -3.32

Qu. Report cytotoxicity at 70.5 h for CC(C)CC(=O)N1CCc2ccc(S(=O)(=O)N3CCN(C)CC3)cc2C1
Ans. -8.6

---

Assay: Human HepG2 cell viability assay in 384 well format
Assay type: toxicity, cell-based
Parameters: dose 125 nL, time 70.5 hour; concentration not given beside the values
Conditions: HepG2 cells, read-out: Inhibition
Recorded measurements of cytotoxicity at 70.5 h, one per entry
# number then unit; no other words

CNC(=O)CN1CCOCC12CCN(C(=O)c1ccc(C)cc1)CC2    -6.86%
c1coc(CN2CCO[C@@]3(CCC[C@@H]3COCc3nccs3)C2)c1    -13.3%
CCN(C)CC1CCN(C(=O)Nc2ccc(-c3cc[nH]n3)cc2)C1 (configuration not stated)    11.5%
CSc1ccccc1C(=O)NCCC(O)c1ccco1 (configuration not stated)    16.9%
O=C1c2ccccc2C(=O)N1CC(O)Cn1nc(-c2cccs2)oc1=O (configuration not stated)    5.68%

Qu. Report cytotoxicity at 70.5 h for CC(=O)N1CC[C@H]2CC(=O)N(Cc3ccc4c(c3)OCO4)CC[C@H]2C1
Ans. -3.96%

Qu. Report cytotoxicity at 70.5 h for CC(C)[C@@H](N)C(=O)NCc1cccnc1N1CCc2ccccc2C1
Ans. -4.97%

Qu. Report cytotoxicity at 70.5 h for CC(NC(=O)N1CCC2(C1)OCCO2)c1cccc(Cl)c1 (configuration not stated)
Ans. -4.94%

Qu. Report cytotoxicity at 70.5 h for CN(C)c1cc(C2CCCN(C(=O)Cn3cc(Cl)cn3)C2)ccn1 (configuration not stated)
Ans. -4.03%

Qu. Report cytotoxicity at 70.5 h for Cc1ccc(-c2nnc(CN3CCn4c(nnc4C4CC4)C3)o2)cc1
Ans. -8.76%

---

Experiment: Human HepG2 cell viability assay in 384 well format
Assay type: toxicity, cell-based
Set-up: dose 125 nL, time 70.5 hour; concentration not given beside the values
Details: HepG2 cells, read-out: Inhibition
Recorded measurements of cytotoxicity at 70.5 h, one per entry
Answer in %, number only, no unit symbol.

Consider the worked cases shown below.
COc1ccc(-c2nnsc2C(=O)N2CCC(C(N)=O)CC2)cc1    -13.8
CCc1nc(C2CCCN2Cc2noc(Cc3ccccc3)n2)no1 (configuration not stated)    -7.3
Cc1nnn2c1COC(CNCc1nccs1)C2 (configuration not stated)    2.74

Qu. Report cytotoxicity at 70.5 h for Cc1nsc(NC(=O)N2CCN(Cc3ccc(F)cc3)C(=O)C2)n1
Ans. -13.5

Qu. Report cytotoxicity at 70.5 h for Cc1cccc(N(C)S(=O)(=O)c2cc(C(=O)O)cs2)c1C
Ans. -5.76

Qu. Report cytotoxicity at 70.5 h for CCc1ncc(C(=O)N2CCC(Nc3ccc(C)nn3)CC2)s1
Ans. -8.02

Qu. Report cytotoxicity at 70.5 h for Cc1cnn(CC2CCCN2C(=O)c2ccc3cc[nH]c3c2)c1 (configuration not stated)
Ans. 0.784

---

Assay: Human HepG2 cell viability assay in 384 well format
Assay type: toxicity, cell-based
Set-up: dose 125 nL, time 70.5 hour; concentration not given beside the values
Conditions: HepG2 cells, read-out: Inhibition
Recorded measurements of cytotoxicity at 70.5 h, one per entry
Answer in %, number only, no unit symbol.

CNc1nc2c(s1)C(c1ccc(F)cc1Cl)CC(=O)N2 (centres undefined)    2.52

Qu. Report cytotoxicity at 70.5 h for O=C(O)Cn1ccc(=O)c2ccc(Cl)cc21
Ans. -7.34

Qu. Report cytotoxicity at 70.5 h for Cc1cccc(CN2CCC3(CCCN(C(=O)c4ccsc4)C3)C2=O)n1 (centres undefined)
Ans. 5.46

Qu. Report cytotoxicity at 70.5 h for Cc1cn2c(n1)CCC(NS(=O)(=O)c1ccc(C)s1)C2 (centres undefined)
Ans. -1.48

---

Test: Human HepG2 cell viability assay in 384 well format
Format: toxicity, cell-based
Parameters: dose 125 nL, time 70.5 hour; concentration not given beside the values
Settings: HepG2 cells, read-out: Inhibition
Recorded measurements of cytotoxicity at 70.5 h, one per entry
Answer in %, number only, no unit symbol.

Consider the worked cases shown below.
CCn1c(C2CCN(C(=O)CCc3cc(Cl)no3)CC2)nn(C)c1=O    -6.98
COc1ccc(CCC(=O)NCCC2CCCO2)cc1Br (stereo not drawn)    -7.13

Qu. Report cytotoxicity at 70.5 h for O=C(NCc1cccs1)[C@H]1CC[C@@H]2[C@@H](CCN2c2ncccn2)O1
Ans. 2.87

---

Test: Human HepG2 cell viability assay in 384 well format
Type: toxicity, cell-based
Design: dose 125 nL, time 70.5 hour; concentration not given beside the values
Conditions: HepG2 cells, read-out: Inhibition
readout: cytotoxicity at 70.5 h (%)
Answer in %, number only, no unit symbol.

O=C(O)C1CN(c2cncc(Cc3ccccc3)n2)C1    -3.73

Qu. Report cytotoxicity at 70.5 h for CSCc1cccc(S(=O)(=O)N2CCSCC2)c1
Ans. -4.49

Qu. Report cytotoxicity at 70.5 h for c1cc(CCN2CCC(c3n[nH]c(C4CC4)n3)CC2)ccn1
Ans. 11.7

---

Assay: Human HepG2 cell viability assay in 384 well format
Assay type: toxicity, cell-based
Parameters: dose 125 nL, time 70.5 hour; concentration not given beside the values
Details: HepG2 cells, read-out: Inhibition
Recorded measurements of cytotoxicity at 70.5 h, one per entry
Answer in %, number only, no unit symbol.

Cc1cc(N2CCC(Cc3ccccc3)CC2)nc(-c2ccncc2)n1    -10.7
CS(=O)(=O)N1CCC(Oc2cnccn2)CC1    -5.72
CC(CNC(=O)c1cnccn1)Oc1cccc(Br)c1 (stereo not drawn)    12.9
COc1ccc(C(=O)N2CCCCC2Cn2cccn2)c(F)c1 (stereo not drawn)    -13.3
NC(=O)Nc1cccc(CNC(=O)CCCc2ccccc2)c1    18
Cc1cnc(C2(C)CCN(Cc3csc(C)n3)CC2)s1    -4.14
Cc1c(C(=O)N2CCN(C)[C@@H]3CS(=O)(=O)C[C@@H]32)[nH]c2ccc(F)cc12    -1.69

# context switch: different compound, same cytotoxicity at 70.5 h
Qu. Report cytotoxicity at 70.5 h for O=C(Nc1cccnc1)c1ccc(-n2cncn2)nn1
Ans. 13.8

---

Recorded measurements of cytotoxicity at 70.5 h, one per entry
Assay: Human HepG2 cell viability assay in 384 well format
Assay type: toxicity, cell-based
Parameters: dose 125 nL, time 70.5 hour; concentration not given beside the values
Details: HepG2 cells, read-out: Inhibition
Answer in %, number only, no unit symbol.

Cc1noc(C)c1CN1CCCC2(CCN(C(=O)C3CC3)C2)C1 (stereo unspecified)    -11.8
NC(=O)C(NC(=O)CCc1ccc(Cl)s1)c1ccccc1 (stereo unspecified)    -7.77
Cc1ccc(C(=O)N2CC(=O)N(Cc3ccco3)CC(O)C2)cc1 (stereo unspecified)    -2.64
O=C(CCCOc1cccc(F)c1)N1CCCC(n2cccn2)C1 (stereo unspecified)    -5.07
O=C(CCc1nc2cccnc2[nH]1)NCc1ccc2c(c1)OCO2    -9.32

Qu. Report cytotoxicity at 70.5 h for Cc1cc(C)n(CC2CCCN2C(=O)CCc2ccncc2)n1 (stereo unspecified)
Ans. -6.13

Qu. Report cytotoxicity at 70.5 h for O=S(=O)(Cc1ccccc1F)Cc1nnnn1C1CC1
Ans. -14.6

Qu. Report cytotoxicity at 70.5 h for CCNC(=O)c1c2c(N3CCN(C)CC3)ncnc2n2ccccc12
Ans. 2.84

Qu. Report cytotoxicity at 70.5 h for O=c1cc(CSc2nnc[nH]2)nc2sc3c(n12)CCCC3
Ans. -10.9

Qu. Report cytotoxicity at 70.5 h for Cc1cc(CN(C)C(=O)NC2CCC(O)CC2)no1 (stereo unspecified)
Ans. -7.4

Qu. Report cytotoxicity at 70.5 h for CCc1noc(C(C)N2CCCN(Cc3noc(C4CC4)n3)CC2)n1 (stereo unspecified)
Ans. -13.5

Qu. Report cytotoxicity at 70.5 h for CC1CCN(CCNC(=O)c2ccccc2N2CCOCC2)CC1
Ans. -7.45

Qu. Report cytotoxicity at 70.5 h for Cc1ccc(CN2CCN(C(=O)c3ccccc3O)C(C)C2=O)cc1 (stereo unspecified)
Ans. -18.7

Qu. Report cytotoxicity at 70.5 h for CN1CC(=O)N(c2cccc(F)c2)CC12CCN(S(C)(=O)=O)C2 (stereo unspecified)
Ans. -10.7

Qu. Report cytotoxicity at 70.5 h for CN1CCC(N(Cc2ccccc2F)C(=O)NCc2ccncc2)CC1
Ans. 30.5

Qu. Report cytotoxicity at 70.5 h for CCS(=O)(=O)c1ccc2oc([C@H]3CCN(Cc4ccccc4)C3)nc2c1
Ans. 2.59

Qu. Report cytotoxicity at 70.5 h for CCOc1cccc(CNC(=O)c2cnn(CC)c2C(F)(F)F)c1
Ans. -2.57

Qu. Report cytotoxicity at 70.5 h for COC(=O)C(NC(=O)CC(C)C)c1cc(F)ccc1F (stereo unspecified)
Ans. -1.44

Qu. Report cytotoxicity at 70.5 h for CN1CCCC(c2cccc(-c3ccccc3F)n2)C1 (stereo unspecified)
Ans. -2.39

Qu. Report cytotoxicity at 70.5 h for CCN(C)S(=O)(=O)N[C@H]1CN(c2ccc(F)cn2)C[C@@H]1C(C)C
Ans. -1.25

Qu. Report cytotoxicity at 70.5 h for CCn1ncc2c1C(COC)N(C(=O)c1cccs1)CC2 (stereo unspecified)
Ans. 0.803

Hello, the source for this data is ChEMBL document CHEMBL3507680, in case you need it.
